# Tested on: PA 1
# Test Summary: MTT cytotoxicity assay, PA 1 ovary
# Format: cell-based
# Test Conditions: Homo sapiens; PA 1 Ovary, 1.0 mM; read-out: Percent cytotoxicity
Endpoint Name: cytotoxicity at 1000 µM (%)
// return numeric value only (unit: %, not printed)

Data request: Value lookup for cytotoxicity at 1000 µM; key = CCOC(=O)C1CCC(=O)N1C(O)C(C)=O (stereo not drawn)
Data returned: 45.6

Data request: Value lookup for cytotoxicity at 1000 µM; key = CCOC(=O)C1CCC(=O)N1C(OC(C)=O)C(C)=O (stereo not drawn)
Data returned: 38

Data request: Value lookup for cytotoxicity at 1000 µM; key = CC(=O)OC(C(C)=O)N1C(=O)CCC1C(=O)OCc1ccccc1 (stereo not drawn)
Data returned: 42.9

Data request: Value lookup for cytotoxicity at 1000 µM; key = CC(=O)C(O)N1C(=O)CCC1C(=O)OCc1ccccc1 (stereo not drawn)
Data returned: 42.8

Data request: Value lookup for cytotoxicity at 1000 µM; key = COC(=O)C1CCC(=O)N1C(OC(C)=O)C(C)=O (stereo not drawn)
Data returned: 28.9

Data request: Value lookup for cytotoxicity at 1000 µM; key = CCCCOC(=O)C1CCC(=O)N1C(OC(C)=O)C(C)=O (stereo not drawn)
Data returned: 31.8
